- STUDY SYSTEM: human Orexin type 1 receptors (Homo sapiens (Human))
- Sequence (O43613 whole entry): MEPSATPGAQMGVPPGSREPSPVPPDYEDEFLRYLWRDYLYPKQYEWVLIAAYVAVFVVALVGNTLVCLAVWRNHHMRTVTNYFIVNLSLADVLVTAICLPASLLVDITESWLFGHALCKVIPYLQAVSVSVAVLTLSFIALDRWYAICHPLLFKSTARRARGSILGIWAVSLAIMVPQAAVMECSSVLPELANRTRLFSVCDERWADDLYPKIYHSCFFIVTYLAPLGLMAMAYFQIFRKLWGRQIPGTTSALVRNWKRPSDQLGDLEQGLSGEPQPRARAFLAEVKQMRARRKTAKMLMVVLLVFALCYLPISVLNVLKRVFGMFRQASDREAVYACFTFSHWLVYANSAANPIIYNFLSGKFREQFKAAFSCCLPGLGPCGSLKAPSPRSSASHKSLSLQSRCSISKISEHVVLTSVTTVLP
- ASSAY SUMMARY: Scintillation Proximity Assay (SPA) binding assay, [3H]SB-674042 displacement, CHO-hOX1 membranes
- EXPERIMENTAL CONTEXT: Table 2, [3H]SB-674042 2 nM
READOUT KIND: OX1 pKi (SPA binding)
# print the numeric value only

Here are 5 compounds together with their reported answers.
{"COMPOUND": "C[C@@H]1C2CC(C2)N(C(=O)c2cc(F)ccc2-n2nccn2)C1CNc1nc2cccnc2s1 (mixture of isomers) [Example 228]", "OX1 pKi (SPA binding)": 7.94}
{"COMPOUND": "Cc1nc(C(=O)N2C3CC(C3)[C@H](C)C2COc2ccc(F)cn2)c(-c2ccccn2)s1 (mixture of isomers)", "OX1 pKi (SPA binding)": 7.13}
{"COMPOUND": "Cc1ccc(-n2nccn2)c(C(=O)N2C3CC(C3)[C@@H](C)C2CNc2ccc(Cl)cn2)n1 (mixture of isomers)", "OX1 pKi (SPA binding)": 7.53}
{"COMPOUND": "Cc1ccc(-n2nccn2)c(C(=O)N2C3CC(C3)[C@@H](C)C2CNc2cnc3ccccc3n2)n1 (mixture of isomers) [Example 158]", "OX1 pKi (SPA binding)": 8.4}
{"COMPOUND": "Cc1ccc(-n2nccn2)c(C(=O)N2C3CC(C3)[C@@H](C)C2COc2ccc(C(F)(F)F)cn2)n1 (mixture of isomers)", "OX1 pKi (SPA binding)": 6.81}

Consider the record given below.
OX1 pKi (SPA binding) for Cc1nc(C(=O)N2C3CC(C3)[C@@H](C)C2CNc2nc3ccc(F)cc3s2)c(-c2ncccn2)s1 (single isomer, unassigned) [Example 164] ?
8.93

----------
- STUDY SYSTEM: UniProt O43614
- Sequence (O43614 whole entry): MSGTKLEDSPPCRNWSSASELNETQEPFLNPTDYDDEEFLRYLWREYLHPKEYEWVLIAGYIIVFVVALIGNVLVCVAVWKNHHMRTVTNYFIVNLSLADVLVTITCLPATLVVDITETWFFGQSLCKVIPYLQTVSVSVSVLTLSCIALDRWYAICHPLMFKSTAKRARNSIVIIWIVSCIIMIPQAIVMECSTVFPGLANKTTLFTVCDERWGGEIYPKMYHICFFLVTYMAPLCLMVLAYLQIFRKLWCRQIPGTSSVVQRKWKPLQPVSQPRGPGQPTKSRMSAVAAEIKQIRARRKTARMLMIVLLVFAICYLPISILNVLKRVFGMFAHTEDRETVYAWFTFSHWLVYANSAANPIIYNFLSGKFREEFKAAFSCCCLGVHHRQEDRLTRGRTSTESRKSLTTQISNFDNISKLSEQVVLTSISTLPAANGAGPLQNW
- ASSAY SUMMARY: Intracellular calcium measurement (FLIPR), antagonism of Orexin-A at EC80 in CHO-hOX2 cells
pKi reference
Schema: pKi number; meaning minus log10 of the concentration expressed in molar units.

{"COMPOUND": "Cc1ccc(-c2ncccn2)c(C(=O)N2C(COc3ccc(F)cc3)CC3CC2C3)c1 (single isomer, unassigned) [Example 17]", "pKi": 6.45}
{"COMPOUND": "Cc1nc(C(=O)N2C3CC(C3)C(C)C2COc2cnc3ccc(Cl)cc3n2)c(-c2ccccc2)s1 (mixture of isomers)", "pKi": 5.73}
{"COMPOUND": "Cc1nc(C(=O)N2C(COc3ccc(F)cc3)CC3CC2C3)c(-c2ccccc2)s1 (single isomer, unassigned) [Example 3]", "pKi": 7.09}
{"COMPOUND": "Cc1ccc(-c2ncccn2)c(C(=O)N2C3CC(C3)[C@H](C)[C@H]2COc2ccc(F)cc2)c1 (single isomer, unassigned)", "pKi": 5.61}
{"COMPOUND": "Cc1ccc(-n2nccn2)c(C(=O)N2C(COc3ccc(F)cc3)CC3CC2C3)c1 (racemic) [Example 10]", "pKi": 6.46}

Consider the record given below.
Give recorded pKi with UniProt O43614 for the following compound: Cc1ccc(-c2ncccn2)c(C(=O)N2C3CC(C3)C(C)C2COc2ccc(F)cn2)n1 (mixture of isomers)
6.63

----------
- ASSAY SUMMARY: Measurement of brain fraction unbound (equilibrium dialysis)
- Type: in vitro ADME
- EXPERIMENTAL CONTEXT: pH 7.4, rat brain homogenate, 37° C., read-out: FU brain (%, rat)
fraction unbound at 5 h, 5 μM reference
# print the numeric value only

{"MOLECULE": "C[C@@H]1C2CC(C2)N(C(=O)c2cc(F)ccc2-n2nccn2)C1CNc1cnc(C(F)(F)F)cn1 (single isomer, unassigned)", "fraction unbound at 5 h, 5 μM": 0.022}
{"MOLECULE": "Cc1ccc(-n2nccn2)c(C(=O)N2C3CC(C3)[C@@H](C)C2CNc2cnc(C(F)(F)F)cn2)n1 (mixture of isomers) [Example 165]", "fraction unbound at 5 h, 5 μM": 0.0477}

Consider the record given below.
fraction unbound at 5 h, 5 μM for Cc1nc(C(=O)N2C3CC(C3)[C@H](C)C2COc2ccc(F)cc2)c(-c2ncccn2)s1 (single isomer, unassigned) ?
0.0151
